Measured hepatocyte CLint of individual entries
MEASUREMENT PROTOCOL: Intrinsic clearance in human cryopreserved hepatocytes assessed per million cells […]
Type: ADME, cell-based, Hepatocyte
RUN PARAMETERS: read-out: CLH

The following compounds have reported results that may help.
[
  {
    "CHEMICAL STRUCTURE": "CC(=O)N[C@@H]1CCC[C@H](C(=O)Nc2cc(-c3cnn4c3CCCC4)c(Cl)cn2)C1",
    "hepatocyte CLint": "< 1.2 µL/min/1e6 cells"
  },
  {
    "CHEMICAL STRUCTURE": "CC(=O)N[C@@H]1CCC[C@H](C(=O)Nc2cc(-c3cnn4c3CC(C)(C)C4)ccn2)C1",
    "hepatocyte CLint": "< 1 µL/min/1e6 cells"
  }
]

Now for a further compound.
Query: I'd like to know its hepatocyte CLint. The compound in question is "CC(=O)N[C@@H]1CCC[C@H](C(=O)Nc2cc(-c3cn[nH]c3CC(C)(C)CO)c(Cl)cn2)C1"
Result: < 1 µL/min/1e6 cells
